Reference source: the supplement of paper PMC10065799

biological target: EPHB2 (UniProt P29323); assay: phosphorylation enrichment, bacterial display (enrichment ratio); higher = better substrate or ligand; peptides without Tyr show the background
Sequence (P29323 whole entry, looked up): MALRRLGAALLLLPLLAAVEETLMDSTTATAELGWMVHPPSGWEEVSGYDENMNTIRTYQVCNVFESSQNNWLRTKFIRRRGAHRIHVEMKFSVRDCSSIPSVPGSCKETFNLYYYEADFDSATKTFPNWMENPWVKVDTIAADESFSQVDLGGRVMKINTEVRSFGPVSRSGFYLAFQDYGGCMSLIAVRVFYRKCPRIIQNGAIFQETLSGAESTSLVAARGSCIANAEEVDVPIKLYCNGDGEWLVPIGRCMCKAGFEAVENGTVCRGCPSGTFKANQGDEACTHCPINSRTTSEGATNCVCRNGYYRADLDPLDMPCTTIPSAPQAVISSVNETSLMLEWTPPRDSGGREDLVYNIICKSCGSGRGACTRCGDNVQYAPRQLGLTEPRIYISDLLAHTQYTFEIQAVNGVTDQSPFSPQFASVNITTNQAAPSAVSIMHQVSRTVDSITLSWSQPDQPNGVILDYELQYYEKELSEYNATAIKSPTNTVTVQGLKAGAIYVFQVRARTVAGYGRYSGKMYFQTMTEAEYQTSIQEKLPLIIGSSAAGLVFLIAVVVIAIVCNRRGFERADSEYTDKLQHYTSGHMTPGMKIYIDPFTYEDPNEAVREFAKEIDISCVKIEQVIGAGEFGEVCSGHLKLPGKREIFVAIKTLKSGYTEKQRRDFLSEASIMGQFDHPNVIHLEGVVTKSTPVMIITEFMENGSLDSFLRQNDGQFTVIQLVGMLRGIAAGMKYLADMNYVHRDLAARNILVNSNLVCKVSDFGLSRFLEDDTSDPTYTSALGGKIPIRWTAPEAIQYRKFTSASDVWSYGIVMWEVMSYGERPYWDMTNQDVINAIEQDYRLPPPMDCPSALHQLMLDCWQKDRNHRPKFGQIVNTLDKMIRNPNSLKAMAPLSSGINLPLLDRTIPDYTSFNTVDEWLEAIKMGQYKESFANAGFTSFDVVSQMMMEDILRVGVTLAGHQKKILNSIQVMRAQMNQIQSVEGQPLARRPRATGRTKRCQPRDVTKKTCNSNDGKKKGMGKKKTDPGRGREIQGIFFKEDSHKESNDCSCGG
PROPERTY MEASURED: phosphorylation enrichment

ADARMCGVLPW [PLP1_Y207_Y207C] | 0.524

For every listed record, write down its phosphorylation enrichment.
1. EQRRAYLEGTC [HLA-C_Y183_L180R]
2. ILCTVYAFKMR [GRM3_Y754_T758M]
3. TRNRDYDDIDD [TTYH2_Y424]
4. MDYRSYPHEYG [RBM10_Y44_R46H]

Reply text:
1: 0.528; 2: 0.568; 3: 0.563; 4: 0.551

---

test system: c-Abl (mouse); assay: phosphorylation enrichment, bacterial display (enrichment ratio); higher = better substrate or ligand; peptides without Tyr show the background
Definition: the class of an entry is the range in class A = under 0.6, class B = from 0.6 up to 0.8, class C = 0.8 and over that contains its phosphorylation enrichment.

VLPIDYFFPPQ [AR_Y552_YF] | class A
KVMANYMFKAG [MAML2_Y513_YF] | class A
RKLASYQSCLL [DHX37_Y1080_R1081Q] | class C
AQADIYKANFQ [IKBKG_Y308_D311N] | class B
PEADKYRLPFA [FGG_Y300_T303P_YF] | class B
GVSFIYTIDGS [DCX_Y105_R102S_YF] | class C

Inquiry: Each sequence maps to one class by phosphorylation enrichment. Which class for SGSFRYGSSCE [SELE_Y390] ?
Reply text: class A

Inquiry: Each sequence maps to one class by phosphorylation enrichment. Which class for NFYEYYVDDPL [GCHFR_Y48_P53L] ?
Reply text: class C

Inquiry: Each sequence maps to one class by phosphorylation enrichment. Which class for MSRLKYPVSQQ [BTK_Y375_I370M] ?
Reply text: class A

Inquiry: Each sequence maps to one class by phosphorylation enrichment. Which class for QQLVAYYSKHA [SRC_Y232] ?
Reply text: class C

---

target: FGFR3 (UniProt P22607); assay: phosphorylation enrichment, bacterial display (enrichment ratio); higher = better substrate or ligand; peptides without Tyr show the background
Sequence (P22607 whole entry, looked up): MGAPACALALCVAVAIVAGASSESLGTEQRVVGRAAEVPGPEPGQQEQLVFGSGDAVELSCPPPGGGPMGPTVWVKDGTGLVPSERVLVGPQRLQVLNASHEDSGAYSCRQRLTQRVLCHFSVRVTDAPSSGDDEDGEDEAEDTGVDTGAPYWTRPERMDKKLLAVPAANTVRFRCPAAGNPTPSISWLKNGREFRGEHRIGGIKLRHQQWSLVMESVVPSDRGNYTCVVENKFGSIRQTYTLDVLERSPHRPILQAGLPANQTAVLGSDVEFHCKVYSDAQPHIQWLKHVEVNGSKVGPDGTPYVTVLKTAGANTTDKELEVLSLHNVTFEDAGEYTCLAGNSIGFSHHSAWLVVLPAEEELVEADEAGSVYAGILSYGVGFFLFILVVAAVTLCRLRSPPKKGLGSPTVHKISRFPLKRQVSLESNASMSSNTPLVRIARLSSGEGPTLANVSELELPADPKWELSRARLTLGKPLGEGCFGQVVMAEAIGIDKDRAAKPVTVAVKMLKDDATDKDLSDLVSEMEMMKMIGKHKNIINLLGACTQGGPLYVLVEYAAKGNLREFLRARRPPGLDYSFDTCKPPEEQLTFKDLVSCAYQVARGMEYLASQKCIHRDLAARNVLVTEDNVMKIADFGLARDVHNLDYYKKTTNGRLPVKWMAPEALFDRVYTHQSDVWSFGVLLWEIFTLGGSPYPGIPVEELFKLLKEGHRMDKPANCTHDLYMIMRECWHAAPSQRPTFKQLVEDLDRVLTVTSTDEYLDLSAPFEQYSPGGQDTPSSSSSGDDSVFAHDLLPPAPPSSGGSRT
What phosphorylation enrichment was measured for each of the following?
One number for each entry.

Some solved cases for reference:
MFKPMYALFRT [HUWE1_Y4078_N4075K] | 0.698
DRLASSLDKVR [KRT10_Y160_Y160S] | 0.415

For every listed record, write down its phosphorylation enrichment.
1. KGSLPYSLILD [PKD1L2_Y406_N407S]
2. KSIEEYLKLVG [RASAL2_Y381]
3. MNKNAYHNVTA [ST3GAL6_Y306]
4. ELANYYKLHHI [AK7_Y391]
5. VHLFAYDWISI [BEST1_Y227_G222V_YF]
6. HAVVDYMRRQK [ATM_Y1915_L1910H]

Reply text:
2.16
0.48
0.451
4.77
1.17
1

For every listed record, write down its phosphorylation enrichment.
1. QQLVAYYSKHT [SRC_Y232_A237T]
2. QKLPLYILENN [VPS13B_Y2774_S2773L]
3. RGFRVYFTPDS [PTPRF_Y450_YF]
4. GGYTWYCDGKK [PROS1_Y266_C265W]
5. GDDLSYGDVPP [IRS1_Y151_E147D]

Reply text:
[0.926, 0.761, 0.877, 0.795, 0.576]

For every listed record, write down its phosphorylation enrichment.
1. YSTSPYLLEAA [BRIP1_Y921]
2. SRGRQYQELPR [KCNH2_Y1009]
3. LPEENYQVLCF [ARHGAP1_Y365_R369C]

Reply text:
[0.604, 0.423, 5.59]

For every listed record, write down its phosphorylation enrichment.
1. TRSFDYMEGGD [FGF7_Y58_YF]
2. RSSKMYFKTRS [LPL_Y329_L330F]
3. IIGNGYFFRVF [MYBPC3_Y1135_YF]
4. YSQNICIQNRN [PKP2_Y631_Y631C]
5. ICTVDYLLRLQ [RYR1_Y3921]
6. SVTCTYSPAHN [TP53_Y126_L130H]
7. VSLEAYCKHKF [RXRA_Y403_A398V_YF]

Reply text:
0.674
0.561
0.538
0.641
0.733
0.865
0.568

For every listed record, write down its phosphorylation enrichment.
1. GYSRHCEDGYP [CTNND1_Y217_Y217C]
2. HKLSFCEFDFE [BTK_Y40_Y40C_YF]
3. VSNFNYFYHRE [KCNA1_Y413]

Reply text:
0.556
1.34
1.86

For every listed record, write down its phosphorylation enrichment.
1. FSGLAYTMERS [GLUD1_Y512_H507Y_YF]
2. FAKTQYPDIYA [CRX_Y63_V66I]
3. TGNGFYFRVFS [MYBPC3_Y1136_I1131T_YF]

Reply text:
1. 0.63
2. 0.668
3. 0.763

---

What SH2 binding enrichment was measured for each of the following?
biological target: c-Src SH2; experiment: SH2 binding enrichment of the phosphorylated peptide, bacterial display (enrichment ratio); higher = better substrate or ligand; peptides without Tyr show the background;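 also: peptide library displayed on the E. coli surface as eCPX fusions, selected cells deep-sequenced, score is each peptide's frequency after selection divided by its frequency in the input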
Answers are plain numbers.

QPEDIYHQTWA [GBA_Y244_G241E] | 0.61
SLDLSYYHTSS [EMD_Y181_P183H] | 0.867
IGRHAYGDQYR [IDH1_Y135] | 0.657
LFSGDYFRIQG [DDR2_Y740_YF] | 0.674
VIEFSYTSADG [DHCR7_Y382_C380Y_YF] | 1.97
YLENYYDLKKD [MMP3_Y42] | 0.908
FSKRIYKGMVA [PCDH15_Y931] | 0.462
VVQGIYGFHHH [UFSP2_Y285_Y290H_YF] | 0.588
FTGNTYRVGDT [FN1_Y106_YF] | 0.479
SVVVPYEPPKV [TP53_Y220_E224K] | 0.64

For every listed record, write down its SH2 binding enrichment.
1. SEKISYVYMKR [SSX7_Y48_L43S]
2. KRYRIYHLATS [BRCA2_Y3009]

Reply text:
0.993
1.34

For every listed record, write down its SH2 binding enrichment.
1. EMFNPCFGLFE [NEDD4L_Y679_Y679C_YF]
2. SLQFEYVHYGG [CDC14A_Y591_S589F]
3. ETKAFYPEEIS [HSPA1A_Y115]
4. LGQRIYQYIRS [DYRK1B_Y271_Q275R]
5. PELINYHQHNF [BTK_Y361_S366F]
6. IDDNQYAYLKA [HNF4A_Y286_E285Q]
7. QNTGGYYDLYG [PTPN11_Y62_D61G]
8. NNKKDYYDMYE [SLC26A3_Y526_K521N]

Reply text:
[0.716, 0.609, 0.45, 3.25, 0.434, 1.47, 7.13, 1.57]

For every listed record, write down its SH2 binding enrichment.
1. DPHQQYYIAMD [TBX15_Y159]
2. AIDVGYRLIDC [AKR1B1_Y40_H42L]
3. LTTEAYEWEPC [ELMOD3_Y61_R66C]

Reply text:
1: 1.75; 2: 2.02; 3: 1.37

For every listed record, write down its SH2 binding enrichment.
1. KTNVSYCGALD [CACNB4_Y103]
2. PADCRYFAFPQ [GAMT_Y222_YF]
3. KKILCYIQGGS [HYDIN_Y4610_N4606K]
4. NHQFDYTFDWT [CSNK1A1_Y294_YF]
5. KRAAIYNPVIF [RHO_Y301_S297R_YF]
6. YISLIYTNYEV [GSTP1_Y109_A114V]

Reply text:
1. 0.551
2. 1.26
3. 0.459
4. 0.606
5. 0.854
6. 1.16

---

target: Fyn (UniProt P06241); assay: phosphorylation enrichment, bacterial display (enrichment ratio); higher = better substrate or ligand; peptides without Tyr show the background
Sequence (P06241 whole entry, looked up): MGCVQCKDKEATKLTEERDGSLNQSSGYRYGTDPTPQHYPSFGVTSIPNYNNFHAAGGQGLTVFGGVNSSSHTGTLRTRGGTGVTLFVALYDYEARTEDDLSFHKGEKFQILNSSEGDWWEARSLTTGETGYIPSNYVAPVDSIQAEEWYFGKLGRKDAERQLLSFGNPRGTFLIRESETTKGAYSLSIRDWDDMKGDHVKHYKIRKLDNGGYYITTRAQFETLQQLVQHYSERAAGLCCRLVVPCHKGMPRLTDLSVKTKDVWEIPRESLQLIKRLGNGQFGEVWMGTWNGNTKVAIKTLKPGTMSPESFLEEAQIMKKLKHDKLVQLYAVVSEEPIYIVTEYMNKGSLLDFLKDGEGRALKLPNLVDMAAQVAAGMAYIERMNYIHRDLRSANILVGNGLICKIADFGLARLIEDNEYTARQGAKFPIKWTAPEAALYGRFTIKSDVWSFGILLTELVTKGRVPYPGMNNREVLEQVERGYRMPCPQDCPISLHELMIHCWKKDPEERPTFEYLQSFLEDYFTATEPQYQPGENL
Param threshold (0.5) applies to phosphorylation enrichment; output label 1 when value >= threshold, label 0 when value < threshold.

TFRPPYYHRDC [HGD_Y333_N337D] | label 1
NFYEYYVDDPL [GCHFR_Y48_P53L] | label 1
CTTIHQNFMCN [TP53_Y234_Y234Q_YF] | label 0

Inquiry: I'd appreciate it if you could say whether KLKEKYEKDIA [HMGB1_Y155] has phosphorylation enrichment at least equal to 0.5.
Reply text: label 1

Inquiry: I'd appreciate it if you could say whether SLDLSYYPTSS [EMD_Y181] has phosphorylation enrichment at least equal to 0.5.
Reply text: label 1

Inquiry: I'd appreciate it if you could say whether SEQNNYSRVAN [CWC22_Y797_R794Q] has phosphorylation enrichment at least equal to 0.5.
Reply text: label 0

Inquiry: I'd appreciate it if you could say whether PVKTPYSLKRW [BMPR2_Y979_R974P] has phosphorylation enrichment at least equal to 0.5.
Reply text: label 1

Inquiry: I'd appreciate it if you could say whether ALMGPYHGQVL [HADHA_Y343_L342P] has phosphorylation enrichment at least equal to 0.5.
Reply text: label 0

Inquiry: I'd appreciate it if you could say whether FSAGTYPRLEE [SYCN_Y108] has phosphorylation enrichment at least equal to 0.5.
Reply text: label 0

Inquiry: I'd appreciate it if you could say whether LRSELYSLIAR [PHIP_Y16_F17S] has phosphorylation enrichment at least equal to 0.5.
Reply text: label 1

Inquiry: I'd appreciate it if you could say whether NFATLHLKIYH [PDE6B_Y219_Y219H] has phosphorylation enrichment at least equal to 0.5.
Reply text: label 0

Inquiry: I'd appreciate it if you could say whether RSSGPYGGGGQ [HNRNPA1_Y341] has phosphorylation enrichment at least equal to 0.5.
Reply text: label 1

Inquiry: I'd appreciate it if you could say whether KSPDSYQKILF [ATM_Y1415_L1420F] has phosphorylation enrichment at least equal to 0.5.
Reply text: label 0

Inquiry: I'd appreciate it if you could say whether TFMKKYPKVFL [CNBD1_Y70_Q69K] has phosphorylation enrichment at least equal to 0.5.
Reply text: label 0

Inquiry: I'd appreciate it if you could say whether GGYTWYCDGKK [PROS1_Y266_C265W] has phosphorylation enrichment at least equal to 0.5.
Reply text: label 0

Inquiry: I'd appreciate it if you could say whether IGGHAYGDQYR [IDH1_Y135_R132G] has phosphorylation enrichment at least equal to 0.5.
Reply text: label 0

Inquiry: I'd appreciate it if you could say whether SVVVPYEPPKV [TP53_Y220_E224K] has phosphorylation enrichment at least equal to 0.5.
Reply text: label 0

Inquiry: I'd appreciate it if you could say whether DFDNLYYWDQD [ERBB2_Y1221_A1216D] has phosphorylation enrichment at least equal to 0.5.
Reply text: label 1

Inquiry: I'd appreciate it if you could say whether GYRPVYSEDEQ [CHST6_Y362] has phosphorylation enrichment at least equal to 0.5.
Reply text: label 1

Inquiry: I'd appreciate it if you could say whether SFPSTYRYERG [INPPL1_Y661_P659S] has phosphorylation enrichment at least equal to 0.5.
Reply text: label 0

Inquiry: I'd appreciate it if you could say whether SLFNGYVFSGM [NEIL3_Y71_V76M_YF] has phosphorylation enrichment at least equal to 0.5.
Reply text: label 0

Inquiry: I'd appreciate it if you could say whether DSSIRYLQEIH [FGG_Y135_Y140H] has phosphorylation enrichment at least equal to 0.5.
Reply text: label 0
